Records here are stratified by melting point; strata: class A: < 20 °C; class B: ≥ 20 °C and < 100 °C; class C: ≥ 100 °C

Bin? "CCCCCCCCCCCCCCCl"
class A

Bin? "NC(=O)c1ccncc1"
class C

Bin? "Clc1cccc(C(Cl)(Cl)Cl)c1"
class A

Bin? CC(Br)C(C)(Br)Br (stereo not given)
class A

Bin? "COc1cc(C(=O)c2ccc(Cl)cc2)cc(OC)c1OCCN1CCOCC1"
class B

* * *

Is boiling point at least 100 °C? Then YES. If not, NO.

Please review the following examples before continuing.
Reported boiling point reaches at least 100 °C for "O=C(OC(=O)C(F)(F)C(F)(F)C(F)(F)F)C(F)(F)C(F)(F)C(F)(F)F" ?
YES

Reported boiling point reaches at least 100 °C for "CCN(CC)c1ccc(Br)cc1" ?
YES

Reported boiling point reaches at least 100 °C for "c1ccc2c(c1)-c1ccc3ccc4cccc5cc-2c1c3c45" ?
YES

Reported boiling point reaches at least 100 °C for "N#CC(F)(Cl)Cl" ?
NO

Reported boiling point reaches at least 100 °C for "CC(C)(C)OOC(C)(C)C" ?
YES

Reported boiling point reaches at least 100 °C for "COC(=O)c1ccccc1N" ?
YES

New cases:
Reported boiling point reaches at least 100 °C for "CCCSc1ccccc1" ?
YES

Reported boiling point reaches at least 100 °C for "C=CCN" ?
NO

Reported boiling point reaches at least 100 °C for "C1=CCCC1" ?
NO

Reported boiling point reaches at least 100 °C for "CC(C)CC(=O)O" ?
YES

Reported boiling point reaches at least 100 °C for "COc1ccc(C(=O)O)cc1" ?
YES

Reported boiling point reaches at least 100 °C for "COc1ccccc1-c1ccccc1OC" ?
YES

* * *

Is log10 Koc (L/kg) at least 2? Then condition met. If not, condition not met.

Reported log10 Koc (L/kg) reaches at least 2 for CCCSP(=S)(OCC)Oc1ccc(SC)cc1 (centres undefined) ?
condition met

Reported log10 Koc (L/kg) reaches at least 2 for "Oc1ccc(Cl)c(Cl)c1" ?
condition met

Reported log10 Koc (L/kg) reaches at least 2 for "Cc1cc(C)cc(NC(=O)N(C)C)c1" ?
condition not met

Reported log10 Koc (L/kg) reaches at least 2 for "CN(C)C(=O)Nc1ccc(F)cc1" ?
condition not met

Reported log10 Koc (L/kg) reaches at least 2 for CC1(C)C(C=C(Cl)Cl)C1C(=O)OC(C#N)c1ccc(F)c(Oc2ccccc2)c1 (centres undefined) ?
condition met

Reported log10 Koc (L/kg) reaches at least 2 for "O=C(O)c1c(Cl)c(Cl)c(Cl)c(Cl)c1C(=O)O" ?
condition met

Reported log10 Koc (L/kg) reaches at least 2 for "c1ccc2c(c1)-c1ccc3ccc4cccc5cc-2c1c3c45" ?
condition met

* * *

Listed next: entries and their corresponding log10 vapour pressure (mmHg).
Output: the number by itself.

The following compounds have reported results that may help.
// lookup log10 vapour pressure (mmHg) for "O=C1OCCO1"
-2.01

// lookup log10 vapour pressure (mmHg) for "C=CCCC=C"
2.34

// lookup log10 vapour pressure (mmHg) for "Brc1cc2c(cc1Br)Oc1ccccc1O2"
-5.92

New cases:
// lookup log10 vapour pressure (mmHg) for "CC(C)OC(=O)[C@@H](C)N(C(=O)c1ccccc1)c1ccc(F)c(Cl)c1"
-6.2
